studySystem: T1, FinO (F-like plasmid (Escherichia coli), UniProt P29367 1-186)
T1 sequence: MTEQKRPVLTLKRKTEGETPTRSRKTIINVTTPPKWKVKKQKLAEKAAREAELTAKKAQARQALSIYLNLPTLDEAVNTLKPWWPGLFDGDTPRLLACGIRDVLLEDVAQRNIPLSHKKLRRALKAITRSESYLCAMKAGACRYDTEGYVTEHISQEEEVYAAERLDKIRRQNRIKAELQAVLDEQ
protocolNotes: EMSA; max bound 55%; 150 mM NaCl, 25 mM Tris-HCl pH 7.5, 5% glycerol, 1 mM MgCl2, 1 nM 32P-RNA, 30 min at room temperature; native 6% PAGE in 0.5x TBE at 4 C
conditionSet: protein: recombinant; tags: His6-TEV site (ENLYFQ/S) N-terminal in the expression construct; label: 32P; terminator hairpin
observationType: pKd
FYI, pKd means -log10 of a concentration in mol per litre.

Which pKd is reported for this binder? malM-RepX (structured_RNA) RNA: GCUUUAUCAGCAGUGUAAAAGGCAAGGGGUAAUUACGCCCCACAGUGCUGAUUUUGCAACAUUAGGUGCGUCUCCUGGCGCACCGCUCU
6.74
